Cited source for all entries: patent US9907859B2

experiment: in vivo; settings: New Zealand White, rabbit, iv, 1 mg/kg, CL
Attribute measured: clearance (mL/min/kg)
Only the number, expressed in mL/min/kg, is required.

Determine from records and report clearance for O=C(NN1C(=O)C2C3C=CC(C4CC34)C2C1=O)c1ccc(C(F)(F)F)cc1 (stereo not shown)
27.7

* * *

experiment: in vivo; details: both, cynomolgus monkey, iv, 3 mg/kg, Cmax
Attribute measured: Cmax (ng/mL)
Only the number, expressed in ng/mL, is required.

Determine from records and report Cmax for O=C(NN1C(=O)C2C3C=CC(C4CC34)C2C1=O)c1ccc(C(F)(F)F)cc1 (stereo not shown) [ST-246]
1050
